The entries below come with measured Emax values attached.
Molecular target: KOR (Homo sapiens, UniProt P41145)
Sequence (P41145 whole entry): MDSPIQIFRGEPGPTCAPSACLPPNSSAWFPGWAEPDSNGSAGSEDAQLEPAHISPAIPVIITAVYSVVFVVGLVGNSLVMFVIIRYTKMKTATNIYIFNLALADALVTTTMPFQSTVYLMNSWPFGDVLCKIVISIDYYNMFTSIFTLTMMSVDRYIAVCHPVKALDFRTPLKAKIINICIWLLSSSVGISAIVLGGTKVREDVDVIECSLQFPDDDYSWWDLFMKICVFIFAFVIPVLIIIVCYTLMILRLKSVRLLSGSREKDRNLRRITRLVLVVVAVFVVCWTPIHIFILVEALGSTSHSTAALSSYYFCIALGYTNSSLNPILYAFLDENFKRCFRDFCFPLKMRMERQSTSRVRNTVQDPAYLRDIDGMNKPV
Assay: cell-based
Conditions: HEK-293T, read-out: Emax% cAMP inhibition hKOR

molecule	Emax (%)
NCc1cccc(C(=O)N[C@@H]2CCC3C4Cc5ccc(O)c6c5[C@@]3(CCN4CC3CC3)C2O6)c1 (some centres unmarked)	90
O=C(NC1CCC2(O)C3Cc4ccc(O)c5c4C2(CCN3CC2CC2)C1O5)c1cccc(I)c1 (centres unmarked)	101
O=C(N[C@@H]1CCC2C3Cc4ccc(O)c5c4[C@@]2(CCN3CC2CC2)C1O5)c1cccc(I)c1 (some centres unmarked)	97.9
N=C(N)NCc1cccc(C(=O)N[C@@H]2CCC3C4Cc5ccc(O)c6c5[C@@]3(CCN4CC3CC3)C2O6)c1 (some centres unmarked)	96
NCc1ccc(C(=O)N[C@@H]2CC[C@H]3[C@H]4Cc5ccc(O)c6c5[C@@]3(CCN4CC3CC3)[C@H]2O6)cc1	100
O=C(N[C@@H]1CC[C@H]2[C@H]3Cc4ccc(O)c5c4[C@@]2(CCN3CC2CC2)[C@H]1O5)c1cccc(CO)c1	101
CO[C@@]12CC[C@@H](NC(=O)c3cccc(I)c3)C3Oc4c(O)ccc5c4[C@@]31CCN(CC1CC1)C2C5 (some centres unmarked)	102
O=C(N[C@@H]1CC[C@@]2(O)C3Cc4ccc(O)cc4[C@@]2(CCN3CC2CC2)C1)c1cccc(I)c1	109

----------
The reader will find reported ΔlogRA cAMP hKOR values listed item by item below.
Biological target: KOR (Homo sapiens)
Conditions: vs U50,488h
experimentalEndpoint: ΔlogRA cAMP hKOR

molecule	valueObserved
O=C(N[C@@H]1CC[C@@]2(O)C3Cc4ccc(O)cc4[C@@]2(CCN3CC2CC2)C1)c1cccc(I)c1	-0.19
O=C(NC1C=CC2C3Cc4ccc(O)c5c4C2(CCN3CC2CC2)C1O5)c1cccc(I)c1 (stereo not drawn)	1.35
N=C(N)NCc1cccc(C(=O)N[C@@H]2CCC3C4Cc5ccc(O)c6c5[C@@]3(CCN4CC3CC3)C2O6)c1 (stereo partly drawn)	0.65
O=C(N[C@@H]1CCC2C3Cc4ccc(O)c5c4[C@@]2(CCN3CC2CC2)C1O5)c1cccc(I)c1 (stereo partly drawn)	1.66
CO[C@@]12CC[C@@H](NC(=O)c3cccc(I)c3)C3Oc4c(O)ccc5c4[C@@]31CCN(CC1CC1)C2C5 (stereo partly drawn)	-0.79
NCc1ccc(C(=O)N[C@@H]2CC[C@H]3[C@H]4Cc5ccc(O)c6c5[C@@]3(CCN4CC3CC3)[C@H]2O6)cc1	0.13
O=C(NC1CCC2(O)C3Cc4ccc(O)c5c4C2(CCN3CC2CC2)C1O5)c1cccc(I)c1 (stereo not drawn)	1.53
O=C(N[C@@H]1CC[C@H]2[C@H]3Cc4ccc(O)c5c4[C@@]2(CCN3CC2CC2)[C@H]1O5)c1cccc(CO)c1	0.2
NCc1cccc(C(=O)N[C@@H]2CCC3C4Cc5ccc(O)c6c5[C@@]3(CCN4CC3CC3)C2O6)c1 (stereo partly drawn)	0.73

----------
Molecular target: KOR (Homo sapiens)
Assay: cell-based
Conditions: EC50 cAMP inhibition hKOR
pEC50: −log10 of the molar value.
Parameter pEC50: see the listing below.
experimentalEndpoint: pEC50

molecule	valueObserved
CO[C@@]12CC[C@@H](NC(=O)c3cccc(I)c3)C3Oc4c(O)ccc5c4[C@@]31CCN(CC1CC1)C2C5 (stereo partly shown)	9.14
NCc1cccc(C(=O)N[C@@H]2CCC3C4Cc5ccc(O)c6c5[C@@]3(CCN4CC3CC3)C2O6)c1 (stereo partly shown)	9.96
O=C(N[C@@H]1CCC2C3Cc4ccc(O)c5c4[C@@]2(CCN3CC2CC2)C1O5)c1cccc(I)c1 (stereo partly shown)	11.86
O=C(NC1C=CC2C3Cc4ccc(O)c5c4C2(CCN3CC2CC2)C1O5)c1cccc(I)c1 (stereo not shown)	11.49
N=C(N)NCc1cccc(C(=O)N[C@@H]2CCC3C4Cc5ccc(O)c6c5[C@@]3(CCN4CC3CC3)C2O6)c1 (stereo partly shown)	9.85
NCc1ccc(C(=O)N[C@@H]2CC[C@H]3[C@H]4Cc5ccc(O)c6c5[C@@]3(CCN4CC3CC3)[C@H]2O6)cc1	10.62
O=C(N[C@@H]1CC[C@H]2[C@H]3Cc4ccc(O)c5c4[C@@]2(CCN3CC2CC2)[C@H]1O5)c1cccc(CO)c1	10.60

----------
Biological target: DOR (Homo sapiens, UniProt P41143)
Sequence (P41143 whole entry): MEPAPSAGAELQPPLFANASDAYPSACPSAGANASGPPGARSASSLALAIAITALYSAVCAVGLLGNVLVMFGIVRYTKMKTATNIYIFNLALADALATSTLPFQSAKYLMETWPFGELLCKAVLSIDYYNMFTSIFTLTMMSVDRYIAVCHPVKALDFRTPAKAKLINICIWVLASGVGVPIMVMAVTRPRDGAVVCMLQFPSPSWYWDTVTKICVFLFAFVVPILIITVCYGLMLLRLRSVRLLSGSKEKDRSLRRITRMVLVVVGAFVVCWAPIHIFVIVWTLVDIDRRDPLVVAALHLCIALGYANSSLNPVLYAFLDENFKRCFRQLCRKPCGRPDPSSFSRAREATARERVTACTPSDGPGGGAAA
Experiment: cell-based
Conditions: EC50 arrestin recruitment hDOR, Tango
Lab note: compare EC50 with 90 nM, writing true if less and false if equal or more.

compound	assignedCategory
O=C(N[C@@H]1CCC2C3Cc4ccc(O)c5c4[C@@]2(CCN3CC2CC2)C1O5)c1cccc(I)c1 (stereo partly shown) [MP1202]	true
N=C(N)NCc1cccc(C(=O)N[C@@H]2CCC3C4Cc5ccc(O)c6c5[C@@]3(CCN4CC3CC3)C2O6)c1 (stereo partly shown) [MP1208]	false
NCc1cccc(C(=O)N[C@@H]2CCC3C4Cc5ccc(O)c6c5[C@@]3(CCN4CC3CC3)C2O6)c1 (stereo partly shown) [MP1207]	true
O=C(N[C@@H]1CC[C@@]2(O)C3Cc4ccc(O)cc4[C@@]2(CCN3CC2CC2)C1)c1cccc(I)c1 [MP1601]	true
CO[C@@]12CC[C@@H](NC(=O)c3cccc(I)c3)C3Oc4c(O)ccc5c4[C@@]31CCN(CC1CC1)C2C5 (stereo partly shown) [MP1305]	false
O=C(NC1C=CC2C3Cc4ccc(O)c5c4C2(CCN3CC2CC2)C1O5)c1cccc(I)c1 (stereo not shown) [MP1104]	true
O=C(NC1CCC2(O)C3Cc4ccc(O)c5c4C2(CCN3CC2CC2)C1O5)c1cccc(I)c1 (stereo not shown) [IBNtxA]	true

----------
The following molecules are listed with their measured pEC50 values.
Target: mDOR (Mus musculus, UniProt P32300)
Sequence (P32300 whole entry): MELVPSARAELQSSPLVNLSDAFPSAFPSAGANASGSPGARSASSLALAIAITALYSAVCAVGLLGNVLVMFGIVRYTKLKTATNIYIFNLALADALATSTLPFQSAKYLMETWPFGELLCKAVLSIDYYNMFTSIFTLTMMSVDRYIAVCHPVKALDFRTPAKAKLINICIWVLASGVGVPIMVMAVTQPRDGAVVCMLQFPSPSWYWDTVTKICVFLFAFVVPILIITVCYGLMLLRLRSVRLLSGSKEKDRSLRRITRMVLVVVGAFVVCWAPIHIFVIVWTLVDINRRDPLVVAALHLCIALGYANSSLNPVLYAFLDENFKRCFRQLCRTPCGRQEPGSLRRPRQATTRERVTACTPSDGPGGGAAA
Assay: cell-based
Details: EC50 G protein activation (BRET) mDOR
pEC50: −log10 of the molar value.

molecule	systemTested	pEC50
O=C(NC1CCC2(O)C3Cc4ccc(O)c5c4C2(CCN3CC2CC2)C1O5)c1cccc(I)c1 (stereo not shown)	mDOR (Mus musculus, UniProt P32300)	9.32
O=C(N[C@@H]1CCC2C3Cc4ccc(O)c5c4[C@@]2(CCN3CC2CC2)C1O5)c1cccc(I)c1 (stereo partly shown)	mDOR (Mus musculus, UniProt P32300)	8.15
N=C(N)NCc1cccc(C(=O)N[C@@H]2CCC3C4Cc5ccc(O)c6c5[C@@]3(CCN4CC3CC3)C2O6)c1 (stereo partly shown)	mDOR (Mus musculus, UniProt P32300)	7.58
O=C(N[C@@H]1CC[C@@]2(O)C3Cc4ccc(O)cc4[C@@]2(CCN3CC2CC2)C1)c1cccc(I)c1	mDOR (Mus musculus, UniProt P32300)	8.20

----------
Molecular target: KOR (Homo sapiens, UniProt P41145)
Test: cell-based
Conditions: EC50 cAMP inhibition hKOR, cell printed in pM
experimentalEndpoint: EC50 (pM)

compound	systemTested	valueObserved
O=C(NC1CCC2(O)C3Cc4ccc(O)c5c4C2(CCN3CC2CC2)C1O5)c1cccc(I)c1 (stereo not shown)	KOR (Homo sapiens, UniProt P41145)	2.46

----------
Molecular target: mDOR (Mus musculus)
Experiment: cell-based
Details: pEC50 arrestin recruitment (BRET) mDOR, ± SEM

molecule	EC50 (nM)
O=C(NC1CCC2(O)C3Cc4ccc(O)c5c4C2(CCN3CC2CC2)C1O5)c1cccc(I)c1 (stereo not shown)	31.6

----------
Emax reference
Target: mKOR (Mus musculus)
Sequence (P33534 whole entry): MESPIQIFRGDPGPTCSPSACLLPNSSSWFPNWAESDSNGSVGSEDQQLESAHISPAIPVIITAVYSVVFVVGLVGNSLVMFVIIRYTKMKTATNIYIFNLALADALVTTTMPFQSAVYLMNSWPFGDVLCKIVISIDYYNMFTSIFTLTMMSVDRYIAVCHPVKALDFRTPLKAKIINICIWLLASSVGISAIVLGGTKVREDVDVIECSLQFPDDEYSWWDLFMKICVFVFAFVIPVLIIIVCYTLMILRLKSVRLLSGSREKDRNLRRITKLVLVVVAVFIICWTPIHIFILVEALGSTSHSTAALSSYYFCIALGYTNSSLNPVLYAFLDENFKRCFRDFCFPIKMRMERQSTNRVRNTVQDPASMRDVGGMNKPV
Assay: biochemical
Conditions: read-out: Emax mKOR [35S]GTPγS
experimentalEndpoint: Emax (%)

molecule	experimentalEndpoint	valueObserved
O=C(N[C@@H]1CC[C@@]2(O)C3Cc4ccc(O)cc4[C@@]2(CCN3CC2CC2)C1)c1cccc(I)c1 [MP1601]	Emax	72
CO[C@@]12CC[C@@H](NC(=O)c3cccc(I)c3)C3Oc4c(O)ccc5c4[C@@]31CCN(CC1CC1)C2C5 (stereo partly shown) [MP1305]	Emax	42.2
O=C(NC1C=CC2C3Cc4ccc(O)c5c4C2(CCN3CC2CC2)C1O5)c1cccc(I)c1 (stereo not shown) [MP1104]	Emax	104
NCc1cccc(C(=O)N[C@@H]2CCC3C4Cc5ccc(O)c6c5[C@@]3(CCN4CC3CC3)C2O6)c1 (stereo partly shown) [MP1207]	Emax	39.3

----------
Biological target: KOR (Homo sapiens, UniProt P41145)
Details: vs U50,488h

compound	ΔlogRA Tango hKOR
NCc1ccc(C(=O)N[C@@H]2CC[C@H]3[C@H]4Cc5ccc(O)c6c5[C@@]3(CCN4CC3CC3)[C@H]2O6)cc1 [MP1209]	0.368
O=C(N[C@@H]1CC[C@H]2[C@H]3Cc4ccc(O)c5c4[C@@]2(CCN3CC2CC2)[C@H]1O5)c1cccc(CO)c1 [MP1210]	0.48
O=C(NC1C=CC2C3Cc4ccc(O)c5c4C2(CCN3CC2CC2)C1O5)c1cccc(I)c1 (stereo not drawn) [MP1104]	2.16
N=C(N)NCc1cccc(C(=O)N[C@@H]2CCC3C4Cc5ccc(O)c6c5[C@@]3(CCN4CC3CC3)C2O6)c1 (stereo partly drawn) [MP1208]	-0.697
O=C(N[C@@H]1CC[C@@]2(O)C3Cc4ccc(O)cc4[C@@]2(CCN3CC2CC2)C1)c1cccc(I)c1 [MP1601]	0.097
O=C(N[C@@H]1CCC2C3Cc4ccc(O)c5c4[C@@]2(CCN3CC2CC2)C1O5)c1cccc(I)c1 (stereo partly drawn) [MP1202]	1.856
NCc1cccc(C(=O)N[C@@H]2CCC3C4Cc5ccc(O)c6c5[C@@]3(CCN4CC3CC3)C2O6)c1 (stereo partly drawn) [MP1207]	-0.176
O=C(NC1CCC2(O)C3Cc4ccc(O)c5c4C2(CCN3CC2CC2)C1O5)c1cccc(I)c1 (stereo not drawn) [IBNtxA]	2.53
CO[C@@]12CC[C@@H](NC(=O)c3cccc(I)c3)C3Oc4c(O)ccc5c4[C@@]31CCN(CC1CC1)C2C5 (stereo partly drawn) [MP1305]	-1.341
